Origin of the recorded values: patent US8026218B2

Reported pIC50 values for a set of compounds
molecular target: δ opioid receptors (MVD) (Mus musculus); construct: from tissue; host or cells: mouse (ICR) isolated vas deferens; experiment: Mouse isolated vas deferens (MVD) assay, opioid agonist
pIC50: −log10 of the molar value.

[
  {
    "COMPOUND": "CSCC[C@H](NC(=O)[C@H](Cc1ccccc1)NC(=O)CNC(=O)[C@@H](C)NC(=O)[C@@H](N)Cc1ccc(O)cc1)C(=O)N1CCC[C@H]1C(=O)N[C@@H](CC(C)C)C(=O)N[C@@H](Cc1c[nH]c2ccccc12)C(=O)NCc1cc(C(F)(F)F)cc(C(F)(F)F)c1 [TY027]",
    "pIC50": 7.84
  },
  {
    "COMPOUND": "CCCC[C@H](NC(=O)[C@H](Cc1ccccc1)NC(=O)CNC(=O)[C@@H](C)NC(=O)[C@@H](N)Cc1ccc(O)cc1)C(=O)N1CCC[C@H]1C(=O)N[C@@H](CC(C)C)C(=O)N[C@@H](Cc1c[nH]c2ccccc12)C(=O)NCc1cc(C(F)(F)F)cc(C(F)(F)F)c1 [TY045]",
    "pIC50": 7.87
  },
  {
    "COMPOUND": "CSCC[C@H](NC(=O)[C@H](Cc1ccccc1)NC(=O)CNC(=O)[C@@H](C)NC(=O)[C@@H](N)Cc1ccc(O)cc1)C(=O)N1CCC[C@H]1C(=O)N[C@@H](CC(C)C)C(=O)N[C@@H](Cc1c[nH]c2ccccc12)C(=O)OCc1cc(C(F)(F)F)cc(C(F)(F)F)c1 [TY005]",
    "pIC50": 7.65
  }
]

====

target: human δ opioid receptors (hDOR) (Homo sapiens, UniProt P41143); construct: expressed in transfected cells; host or cells: HN9.10 neuroblastoma cell line, pCDNA3, neomycin-selected clones; assay: [35S]GTP-γ-S binding assay, hDOR; format: biochemical; conditions: read-out: GTP binding hDOR Emax
Sequence (P41143 whole entry): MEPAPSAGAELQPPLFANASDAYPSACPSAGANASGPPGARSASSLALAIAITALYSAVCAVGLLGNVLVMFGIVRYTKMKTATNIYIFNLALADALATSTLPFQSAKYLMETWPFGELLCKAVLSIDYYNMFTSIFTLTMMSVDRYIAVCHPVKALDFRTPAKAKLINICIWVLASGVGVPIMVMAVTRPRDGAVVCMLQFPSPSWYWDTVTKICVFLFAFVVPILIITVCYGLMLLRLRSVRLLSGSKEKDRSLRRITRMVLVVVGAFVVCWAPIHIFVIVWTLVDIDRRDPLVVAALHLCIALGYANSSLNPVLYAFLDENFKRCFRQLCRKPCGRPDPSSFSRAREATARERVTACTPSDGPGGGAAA
OBSERVED PROPERTY: Emax (%)

[
  {
    "COMPOUND": "CSCC[C@H](NC(=O)[C@H](Cc1ccccc1)NC(=O)CNC(=O)[C@@H](C)NC(=O)[C@@H](N)Cc1c(C)cc(O)cc1C)C(=O)N1CCC[C@H]1C(=O)N[C@@H](CC(C)C)C(=O)N[C@@H](Cc1c[nH]c2ccccc12)C(=O)NCc1cc(C(F)(F)F)cc(C(F)(F)F)c1",
    "OBSERVED PROPERTY": "Emax",
    "READOUT VALUE": 24
  },
  {
    "COMPOUND": "CC(C)C[C@H](NC(=O)[C@@H]1CCCN1C(=O)[C@H]1NC(=O)[C@H](Cc2ccccc2)NC(=O)CNC(=O)[C@H](NC(=O)[C@@H](N)Cc2ccc(O)cc2)C(C)(C)SSC1(C)C)C(=O)N[C@@H](Cc1c[nH]c2ccccc12)C(=O)NCc1cc(C(F)(F)F)cc(C(F)(F)F)c1",
    "OBSERVED PROPERTY": "Emax",
    "READOUT VALUE": 15
  },
  {
    "COMPOUND": "CC(C)C[C@H](NC(=O)[C@@H]1CCCN1C(=O)C(COC1OC(CO)C(O)C(O)C1O)NC(=O)[C@H](Cc1ccccc1)NC(=O)CNC(=O)[C@@H](C)NC(=O)[C@@H](N)Cc1ccc(O)cc1)C(=O)N[C@@H](Cc1c[nH]c2ccccc12)C(=O)NCc1cc(C(F)(F)F)cc(C(F)(F)F)c1 (stereo partly drawn)",
    "OBSERVED PROPERTY": "Emax",
    "READOUT VALUE": 47
  }
]

====

target: δ opioid receptors (MVD) (Mus musculus, UniProt P32300); construct: from tissue; host or cells: mouse (ICR) isolated vas deferens; experiment: Mouse isolated vas deferens (MVD) assay, opioid agonist
Sequence (P32300 whole entry): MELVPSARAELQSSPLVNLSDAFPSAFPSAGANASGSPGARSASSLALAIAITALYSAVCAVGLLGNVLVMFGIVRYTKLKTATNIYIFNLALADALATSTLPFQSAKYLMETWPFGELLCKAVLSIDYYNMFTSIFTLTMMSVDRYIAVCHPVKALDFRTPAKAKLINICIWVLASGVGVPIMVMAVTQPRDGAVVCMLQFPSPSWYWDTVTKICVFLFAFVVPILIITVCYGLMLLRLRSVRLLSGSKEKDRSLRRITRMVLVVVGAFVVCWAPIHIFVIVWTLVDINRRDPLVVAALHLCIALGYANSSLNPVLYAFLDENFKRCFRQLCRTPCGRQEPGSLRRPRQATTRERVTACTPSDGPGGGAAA
pIC50: −log10 of the molar value. Peptide text beside a SMILES is read from it.

[
  {
    "COMPOUND": "C[C@@H](NC(=O)[C@@H](N)Cc1ccc(O)cc1)C(=O)NCC(=O)N[C@@H](Cc1c[nH]c2ccccc12)C(=O)OCc1cc(C(F)(F)F)cc(C(F)(F)F)c1 [NP44] (HELM PEPTIDE1{Y.[dA].G.W.[FC(F)(F)c1cc(CO[*:1])cc(C(F)(F)F)c1]}$$$$V2.0; N-terminus assumed)",
    "pIC50": 6.52
  },
  {
    "COMPOUND": "C[C@@H](NC(=O)[C@@H](N)Cc1ccc(O)cc1)C(=O)NCC(=O)N[C@@H](Cc1ccccc1)C(=O)NC(C)(C)C(=O)N[C@@H](Cc1c[nH]c2ccccc12)C(=O)OCc1cc(C(F)(F)F)cc(C(F)(F)F)c1 [NP41] (HELM PEPTIDE1{Y.[dA].G.F.[Aib].W.[FC(F)(F)c1cc(CO[*:1])cc(C(F)(F)F)c1]}$$$$V2.0; N-terminus assumed)",
    "pIC50": 7.44
  },
  {
    "COMPOUND": "CSCC[C@H](NC(=O)[C@H](Cc1ccccc1)NC(=O)CNC(=O)[C@@H](C)NC(=O)[C@@H](N)Cc1ccc(O)cc1)C(=O)N1CCC[C@H]1C(=O)N[C@@H](CC(C)C)C(=O)N[C@@H](Cc1c[nH]c2ccccc12)C(=O)O [TY043]",
    "pIC50": 8.09
  }
]

====

target: human δ opioid receptors (hDOR) (Homo sapiens, UniProt P41143); construct: expressed in transfected cells; host or cells: HN9.10 neuroblastoma cell line, pCDNA3, neomycin-selected clones; test: [35S]GTP-γ-S binding assay, hDOR; assay type: biochemical; details: read-out: GTP binding hDOR Emax
Reported Emax values for a set of molecules

[
  {
    "MOL": "CC(C)C[C@H](NC(=O)[C@@H]1CCCN1C(=O)[C@@H](Cc1ccccc1)NC(=O)[C@H](Cc1ccccc1)NC(=O)CNC(=O)[C@@H](C)NC(=O)[C@@H](N)Cc1ccc(O)cc1)C(=O)N[C@@H](Cc1c[nH]c2ccccc12)C(=O)OCc1cc(C(F)(F)F)cc(C(F)(F)F)c1",
    "Emax, %": 22.9
  },
  {
    "MOL": "CSCC[C@H](NC(=O)[C@H](Cc1ccccc1)NC(=O)CNC(=O)[C@@H](C)NC(=O)[C@@H](N)Cc1ccc(O)cc1)C(=O)N1CCC[C@@H]1C(=O)N[C@@H](CC(C)C)C(=O)N[C@@H](Cc1c[nH]c2ccccc12)C(=O)OCc1cc(C(F)(F)F)cc(C(F)(F)F)c1",
    "Emax, %": 21
  },
  {
    "MOL": "CC(C)C[C@H](NC(=O)[C@@H]1CCCN1C(=O)[C@H](Cc1ccccc1)NC(=O)[C@H](Cc1ccccc1)NC(=O)CNC(=O)[C@@H](C)NC(=O)[C@@H](N)Cc1ccc(O)cc1)C(=O)N[C@@H](Cc1c[nH]c2ccccc12)C(=O)OCc1cc(C(F)(F)F)cc(C(F)(F)F)c1",
    "Emax, %": 39
  },
  {
    "MOL": "CCCC[C@@H](C(=O)N1CCC[C@H]1C(=O)N[C@@H](CC(C)C)C(=O)N[C@@H](Cc1c[nH]c2ccccc12)C(=O)OCc1cc(C(F)(F)F)cc(C(F)(F)F)c1)N(C)C(=O)[C@H](Cc1ccccc1)NC(=O)CNC(=O)[C@@H](C)NC(=O)[C@@H](N)Cc1ccc(O)cc1",
    "Emax, %": 283
  }
]

====

Reported EC50 values for a set of compounds
biological target: rat μ opioid receptors (rMOR) (Rattus norvegicus); construct: expressed in transfected cells; host or cells: HN9.10 neuroblastoma cell line, pCDNA3, neomycin-selected clones; test: biochemical; assay type: biochemical; details: read-out: EC50, rMOR, [35S]GTP-γ-S binding
Sequence (P33535 whole entry): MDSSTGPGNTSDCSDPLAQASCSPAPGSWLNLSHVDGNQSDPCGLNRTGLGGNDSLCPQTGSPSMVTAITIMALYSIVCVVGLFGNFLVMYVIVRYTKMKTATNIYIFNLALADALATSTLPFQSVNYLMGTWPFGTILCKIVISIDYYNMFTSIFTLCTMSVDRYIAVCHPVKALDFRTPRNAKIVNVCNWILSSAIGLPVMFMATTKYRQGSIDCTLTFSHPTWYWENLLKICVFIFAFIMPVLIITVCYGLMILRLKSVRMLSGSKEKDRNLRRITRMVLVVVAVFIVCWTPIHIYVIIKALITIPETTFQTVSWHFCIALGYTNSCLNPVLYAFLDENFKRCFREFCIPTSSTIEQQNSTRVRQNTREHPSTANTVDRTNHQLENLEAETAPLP
Peptide text beside a SMILES is read from it.

[
  {
    "COMPOUND": "CC(C)C[C@H](NC(=O)[C@@H]1CCCN1C(=O)CNC(=O)[C@H](Cc1ccccc1)NC(=O)CNC(=O)[C@@H](C)NC(=O)[C@@H](N)Cc1ccc(O)cc1)C(=O)N[C@@H](Cc1c[nH]c2ccccc12)C(=O)OCc1cc(C(F)(F)F)cc(C(F)(F)F)c1 [TY006] (HELM PEPTIDE1{Y.[dA].G.F.G.P.L.W.[FC(F)(F)c1cc(CO[*:1])cc(C(F)(F)F)c1]}$$$$V2.0)",
    "EC50 [nM]": 41.7
  },
  {
    "COMPOUND": "CC(C)C[C@H](NC(=O)[C@@H]1CCCN1C(=O)[C@H](Cc1ccccc1)NC(=O)[C@H](Cc1ccccc1)NC(=O)CNC(=O)[C@@H](C)NC(=O)[C@@H](N)Cc1ccc(O)cc1)C(=O)N[C@@H](Cc1c[nH]c2ccccc12)C(=O)OCc1cc(C(F)(F)F)cc(C(F)(F)F)c1 [TY003]",
    "EC50 [nM]": 58.7
  },
  {
    "COMPOUND": "CC(C)C[C@H](NC(=O)[C@@H]1CCCN1C(=O)[C@H](CC(C)C)NC(=O)[C@H](Cc1ccccc1)NC(=O)CNC(=O)[C@@H](C)NC(=O)[C@@H](N)Cc1ccc(O)cc1)C(=O)N[C@@H](Cc1c[nH]c2ccccc12)C(=O)OCc1cc(C(F)(F)F)cc(C(F)(F)F)c1 [TY004]",
    "EC50 [nM]": 33
  },
  {
    "COMPOUND": "CC(C)C[C@H](NC(=O)[C@@H]1CCCN1C(=O)[C@@H](Cc1ccccc1)NC(=O)[C@H](Cc1ccccc1)NC(=O)CNC(=O)[C@@H](C)NC(=O)[C@@H](N)Cc1ccc(O)cc1)C(=O)N[C@@H](Cc1c[nH]c2ccccc12)C(=O)OCc1cc(C(F)(F)F)cc(C(F)(F)F)c1 [TY007]",
    "EC50 [nM]": 345
  }
]
